Overview of recorded pIC50 for various compounds
biological target: Protein cereblon/Cyclin-dependent kinase 5 (Homo sapiens, UniProt Q00535+Q96SW2); experiment: PROTAC activity at CRBN/CDK5 in HEK293 cells assessed as induction of CDK5 degradation incubated for 24 hrs by Western blotting analysis
Sequence (Q00535 whole entry): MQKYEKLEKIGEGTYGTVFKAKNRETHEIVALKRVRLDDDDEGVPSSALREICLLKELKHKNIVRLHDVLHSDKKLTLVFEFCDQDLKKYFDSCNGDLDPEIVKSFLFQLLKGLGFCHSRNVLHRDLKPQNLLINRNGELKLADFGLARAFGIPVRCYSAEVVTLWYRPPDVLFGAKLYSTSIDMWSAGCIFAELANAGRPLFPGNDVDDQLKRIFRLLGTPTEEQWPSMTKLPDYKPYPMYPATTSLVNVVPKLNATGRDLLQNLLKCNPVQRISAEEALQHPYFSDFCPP
Sequence (Q96SW2 whole entry): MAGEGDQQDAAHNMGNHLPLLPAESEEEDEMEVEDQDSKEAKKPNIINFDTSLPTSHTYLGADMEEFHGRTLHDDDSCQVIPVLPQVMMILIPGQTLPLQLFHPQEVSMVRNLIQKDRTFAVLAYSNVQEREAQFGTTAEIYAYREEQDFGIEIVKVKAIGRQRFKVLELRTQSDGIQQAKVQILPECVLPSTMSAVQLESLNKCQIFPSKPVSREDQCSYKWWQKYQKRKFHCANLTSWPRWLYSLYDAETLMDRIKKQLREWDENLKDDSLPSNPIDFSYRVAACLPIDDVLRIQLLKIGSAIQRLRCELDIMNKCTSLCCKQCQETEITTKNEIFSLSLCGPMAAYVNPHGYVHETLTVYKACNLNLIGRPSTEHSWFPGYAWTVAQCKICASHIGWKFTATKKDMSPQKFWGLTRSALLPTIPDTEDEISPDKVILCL
Keep in mind that pIC50 stands for -log10 of concentration in molar terms.

compound: O=C(CCCOc1ccc(CC(=O)Nc2cc(C3CCC3)[nH]n2)cc1)NCCCCNc1cccc2c1C(=O)N(C1CCC(=O)NC1=O)C2=O (configuration not stated)
subject.of.test: Protein cereblon/Cyclin-dependent kinase 5 (Homo sapiens, UniProt Q00535+Q96SW2)
pIC50: 8.15

Measured pIC50 (Protein cereblon/Cyclin-dependent kinase 5 (Homo sapiens, UniProt Q00535+Q96SW2)), entry O=C1CCC(N2C(=O)c3cccc(OCCCCCOc4ccc(CC(=O)Nc5cc(C6CCC6)n[nH]5)cc4)c3C2=O)C(=O)N1 (configuration not stated) : 7.49

###

molecular target: Protein cereblon/Cyclin-dependent kinase 2 (Homo sapiens, UniProt P24941+Q96SW2); test: PROTAC activity at CRBN/CDK2 in HEK293 cells assessed as induction of CDK2 degradation incubated for 24 hrs by Western blotting analysis
quantity.kind: IC50 (nM)
Express it in nM; write the number only.

The value of IC50 measured for the compound O=C(CCCOc1ccc(CC(=O)Nc2cc(C3CCC3)[nH]n2)cc1)NCCCCNc1cccc2c1C(=O)N(C1CCC(=O)NC1=O)C2=O (stereo unspecified) turned out to be 155

###

target: UniProt P50750
Sequence (P50750 whole entry): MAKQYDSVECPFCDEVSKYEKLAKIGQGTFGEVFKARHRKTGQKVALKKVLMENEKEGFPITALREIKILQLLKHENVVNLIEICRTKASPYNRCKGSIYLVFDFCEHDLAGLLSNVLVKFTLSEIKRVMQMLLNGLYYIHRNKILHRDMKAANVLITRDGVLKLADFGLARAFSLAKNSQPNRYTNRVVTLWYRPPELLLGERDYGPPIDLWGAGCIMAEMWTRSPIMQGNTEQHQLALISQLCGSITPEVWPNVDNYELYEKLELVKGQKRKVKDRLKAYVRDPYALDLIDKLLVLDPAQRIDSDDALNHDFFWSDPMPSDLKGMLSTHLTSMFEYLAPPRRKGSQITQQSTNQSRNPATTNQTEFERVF
quantity.kind: Kd (nM)
Express it in nM; write the number only.

Measured Kd (UniProt P50750), entry O=C1CCC(N2C(=O)c3cccc(OCCCCCOc4ccc(CC(=O)Nc5cc(C6CCC6)n[nH]5)cc4)c3C2=O)C(=O)N1 (stereo unspecified) : 1060
